This section lists pIC50 readings for human 11β-HSD1 (Homo sapiens).
The quantity pIC50 is defined as the negative base-10 logarithm of the molar concentration.

**Query** Quick check: pIC50 on human 11β-HSD1 (Homo sapiens), item CC1(C)OC(N[C@@H](CCO)c2ccccc2F)=NS(=O)(=O)C1c1ccc(Nc2ncccn2)cc1 (some centres unmarked) ?
**Result** 7.70

**Query** Quick check: pIC50 on human 11β-HSD1 (Homo sapiens), item COc1cccc(C2C(C)(C)OC(N[C@@H](CCO)c3ccccc3)=NS2(=O)=O)c1 (some centres unmarked) ?
**Result** 7.89

**Query** Quick check: pIC50 on human 11β-HSD1 (Homo sapiens), item CC1(C)OC(N[C@@H](CCO)c2ccccc2F)=NS(=O)(=O)C1c1ccc(C2CCN(C(C)(C)C)CC2)cc1 (some centres unmarked) ?
**Result** 7.47

**Query** Quick check: pIC50 on human 11β-HSD1 (Homo sapiens), item CC1(C)OC(N[C@@H](CCO)c2ccccc2)=NS(=O)(=O)C1(C)c1ccc(-c2ccccc2)cc1 (some centres unmarked) ?
**Result** 8.05

**Query** Quick check: pIC50 on human 11β-HSD1 (Homo sapiens), item CC1(C)OC(N[C@@H](CCO)c2ccccc2F)=NS(=O)(=O)C1c1ccc(N2C(=O)c3ccccc3C2=O)cc1 (some centres unmarked) ?
**Result** 7.85

**Query** Quick check: pIC50 on human 11β-HSD1 (Homo sapiens), item CC1(C)OC(N[C@@H](CCO)c2ccccc2F)=NS(=O)(=O)C1(C)c1ccc(-c2ccccc2)cc1 (some centres unmarked) ?
**Result** 8.10

**Query** Quick check: pIC50 on human 11β-HSD1 (Homo sapiens), item CC1(C)OC(N[C@@H](CCO)c2ccccc2F)=NS(=O)(=O)C1(C)c1cccc(-c2cncnc2)c1 (some centres unmarked) ?
**Result** 7.74

**Query** Quick check: pIC50 on human 11β-HSD1 (Homo sapiens), item CC1(C)OC(N[C@@H](CCO)c2ccccc2F)=NS(=O)(=O)C1c1ccc(-c2csc(N3CCOCC3)n2)cc1 (some centres unmarked) ?
**Result** 8.10

* * *

- subject of test: human 11β-HSD1 (Homo sapiens)
pIC50: −log10 of the molar value.
pIC50 below 8 gives not met; pIC50 at or above it gives met.

Answered cases to consult:
C[C@H](NC1=NS(=O)(=O)C(C)(c2cccc(-c3ccccc3)c2)C(C)(C)O1)c1ccccc1F (stereo partly shown)
not met
CNCCCc1ccc(C2C(C)(C)OC(N[C@@H](CCO)c3ccccc3F)=NS2(=O)=O)cc1 (stereo partly shown)
not met

**Query** Identify whether the reported pIC50 of the following compound is 8 or greater: CC(C)(C)c1ccc(C2C(C)(C)OC(N[C@@H](CCO)c3ccccc3F)=NS2(=O)=O)cc1 (stereo partly shown) [Compound 58]
**Result** not met

**Query** Identify whether the reported pIC50 of the following compound is 8 or greater: CC1(C)OC(N[C@@H](CCO)c2ccccc2F)=NS(=O)(=O)[C@H]1c1ccc(-c2ccnc(C#N)c2)cc1
**Result** met

**Query** Identify whether the reported pIC50 of the following compound is 8 or greater: CN1CCN(Cc2ccc(C3C(C)(C)OC(N[C@@H](CCO)c4ccccc4F)=NS3(=O)=O)cc2)CC1 (stereo partly shown)
**Result** not met

**Query** Identify whether the reported pIC50 of the following compound is 8 or greater: CC1(C)OC(N[C@@H](CCO)c2ccccc2F)=NS(=O)(=O)C1c1ccc(-c2cc(Cl)sc2Cl)cc1 (stereo partly shown)
**Result** not met

* * *

- subject of test: human 11β-HSD1 (Homo sapiens, UniProt P28845)
- Construct: host or cells: microsome fraction
- Sequence (P28845 whole entry): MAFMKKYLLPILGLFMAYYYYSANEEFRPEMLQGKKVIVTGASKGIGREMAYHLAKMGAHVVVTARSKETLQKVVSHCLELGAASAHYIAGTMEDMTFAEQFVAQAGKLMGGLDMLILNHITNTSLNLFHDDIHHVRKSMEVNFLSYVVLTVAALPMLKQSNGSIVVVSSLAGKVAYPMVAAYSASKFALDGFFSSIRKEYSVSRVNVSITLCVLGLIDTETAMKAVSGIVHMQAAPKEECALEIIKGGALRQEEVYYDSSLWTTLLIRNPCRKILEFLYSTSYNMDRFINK
- protocol text: Enzymatic 11beta-HSD1 test (SPA-based detection)
- Format: biochemical
- condition summary: human 11β-HSD1 microsome fraction, [1,2-3H]-cortisone, NADPH, 37° C. 1 hour
IC50 class ranges: lo (below 10 nM), med (10 nM to below 30 nM), hi (30 nM or more)

Answered cases to consult:
CC1(C)OC(N[C@@H](CCO)c2ccccc2)=NS(=O)(=O)C1(C)c1cccc(Br)c1 (some centres unmarked)
lo
C[C@H](NC1=NS(=O)(=O)C(C)(c2ccccc2)C(C)(C)O1)c1ccccc1F (some centres unmarked) [Compound 56]
lo
CC1(C)OC(N[C@@H](CCO)c2ccccc2)=NS(=O)(=O)C1c1ccc(O)cc1 (some centres unmarked)
hi
CC1(C)OC(N[C@@H](CCO)c2ccc(F)cc2F)=NS(=O)(=O)C1c1ccc(-c2ccccc2)cc1 (some centres unmarked)
med
C[C@H](NC1=NS(=O)(=O)C(c2cccc(C3CCN(C)CC3)c2)C(C)(C)O1)c1ccccc1F (some centres unmarked)
hi

**Query** # bin lookup: classify Cn1cc(-c2ccc(C3C(C)(C)OC(N[C@@H](CCO)c4ccccc4F)=NS3(=O)=O)cc2)cn1 (some centres unmarked) by its IC50
**Result** lo

**Query** # bin lookup: classify CC1(C)OC(N[C@@H](CCO)c2ccccc2)=NS(=O)(=O)C1c1cccc(OCc2ccccc2)c1 (some centres unmarked) by its IC50
**Result** med

**Query** # bin lookup: classify C[C@H](NC1=NS(=O)(=O)C(C)(c2ccccc2)C(C)(C)O1)c1ccccc1F (some centres unmarked) [Compound 57] by its IC50
**Result** lo

**Query** # bin lookup: classify CC(C)(C)c1ccc(C2(C)C(C)(C)OC(N[C@@H](CCO)c3ccccc3F)=NS2(=O)=O)cc1 (some centres unmarked) by its IC50
**Result** med

**Query** # bin lookup: classify C[C@H](NC1=NS(=O)(=O)C(c2ccc(C3CCN(C(C)(C)C)CC3)cc2)C(C)(C)O1)c1ccccc1F (some centres unmarked) by its IC50
**Result** hi

**Query** # bin lookup: classify CC1(C)OC(N[C@@H](CCO)c2ccccc2F)=NS(=O)(=O)C1(C)c1cccc(-c2ccccc2)c1 (single isomer, unassigned) by its IC50
**Result** med

**Query** # bin lookup: classify CC1(C)OC(N[C@@H](CCO)c2ccc(Cl)cc2)=NS(=O)(=O)C1c1ccc(-c2ccccc2)cc1 (some centres unmarked) by its IC50
**Result** hi

**Query** # bin lookup: classify CC1(C)OC(N[C@@H](CCO)c2ccccc2)=NS(=O)(=O)C1(C)c1cccc(N2CCCC2)c1 (some centres unmarked) by its IC50
**Result** med

**Query** # bin lookup: classify CC1(C)OC(N[C@@H](CCO)c2ccccc2)=NS(=O)(=O)C1c1cccc(Cc2ccccc2)c1 (some centres unmarked) by its IC50
**Result** med

**Query** # bin lookup: classify CC1(C)OC(N[C@@H](CCO)c2ccccc2F)=NS(=O)(=O)C1c1ccc(C2CCN(CC(F)F)CC2)cc1 (some centres unmarked) by its IC50
**Result** lo

**Query** # bin lookup: classify CC1(C)OC(N[C@@H](CCO)c2ccccc2F)=NS(=O)(=O)C1(C)c1cccc(Br)c1 (some centres unmarked) by its IC50
**Result** lo

**Query** # bin lookup: classify C[C@H](NC1=NS(=O)(=O)C(c2ccc(-c3ccccc3)cc2)C(C)(C)O1)c1ccccc1F (some centres unmarked) by its IC50
**Result** hi

**Query** # bin lookup: classify CN1CCN(CCc2ccc(C3C(C)(C)OC(N[C@@H](CCO)c4ccccc4F)=NS3(=O)=O)cc2)CC1 (some centres unmarked) by its IC50
**Result** hi

**Query** # bin lookup: classify CC1(C)OC(N[C@@H](CCO)c2ccccc2F)=NS(=O)(=O)C1c1ccc(N2CCN(CCO)CC2)cc1 (some centres unmarked) by its IC50
**Result** hi

**Query** # bin lookup: classify CC1(C)OC(N[C@@H](CCO)c2ccccc2F)=NS(=O)(=O)C1c1ccc(-c2ccccc2)cc1 (single isomer, unassigned) by its IC50
**Result** med
